Test system: Mythimna separata
Assay: In vivo insecticidal activity against pre-third-instar larval stage of Mythimna separata (Oriental armyworm) in corn leaves assessed as corrected mortality rate at 1 mg/ml treated for 3 secs before larval infestation measured after 12 days by leaf-dipping method
Assay type: functional
Condition Info: 288 h
Assay Readout: mortality at 1000 µg/mL

Below are worked cases with known answers.
COc1cc([C@@H]2c3cc4c(cc3C[C@H]3COC(=O)[C@@H]32)OCO4)cc(OC)c1OC(=O)c1ccncc1: 14.2%
COc1cc([C@@H]2c3cc4c(cc3C[C@H]3COC(=O)[C@@H]32)OCO4)cc(OC)c1OC(=O)CCCc1c[nH]c2ccccc12: 10.7%
COc1cc([C@@H]2c3cc4c(cc3C[C@H]3COC(=O)[C@@H]32)OCO4)cc(OC)c1OC(=O)c1cccnc1: 3.5%
COc1cc([C@@H]2c3cc4c(cc3C[C@H]3COC(=O)[C@@H]32)OCO4)cc(OC)c1OC(=O)c1cccc(C)c1: 17.8%
COc1ccc(C(=O)Oc2c(OC)cc([C@@H]3c4cc5c(cc4C[C@H]4COC(=O)[C@@H]43)OCO5)cc2OC)cc1: 3.5%

Tell me mortality at 1000 µg/mL reported for COc1cc([C@@H]2c3cc4c(cc3C[C@H]3COC(=O)[C@@H]32)OCO4)cc(OC)c1OC(=O)c1cccc([N+](=O)[O-])c1
3.5%

Tell me mortality at 1000 µg/mL reported for CC(=O)O[C@@H]1C[C@H](O)[C@@]23CO[C@@H](O)[C@]1(C)[C@@H]2C[C@@H](O)[C@]1(C)[C@@H]3C(=O)[C@H](OC(C)=O)[C@@]2(C)[C@H](c3ccoc3)C[C@H]3O[C@]321
21.4%

Tell me mortality at 1000 µg/mL reported for COc1cc([C@@H]2c3cc4c(cc3C[C@H]3COC(=O)[C@@H]32)OCO4)cc(OC)c1OC(=O)Cc1cccc2ccccc12
7.1%

Tell me mortality at 1000 µg/mL reported for COc1cc([C@@H]2c3cc4c(cc3C[C@H]3COC(=O)[C@@H]32)OCO4)cc(OC)c1OC(=O)c1ccccc1Cl
17.8%

Ref: ChEMBL document CHEMBL3046209
